Could you please report measured growth inhibition for the items listed next?
# assay.name: NCI Yeast Anticancer Drug Screen. Data for the sgs1 mgt1 strain (AID 161);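 further: 0% = growth of cultures given vehicle only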
# particulars: S. cerevisiae sgs1 mgt1 strain, at 50.0 µM, hits give high values
Compounds without any hit were thinned out: in the full panel of roughly 79,000, 15% have a hit.
Answers are plain numbers, in %.

CC(C)(C)OC[C@H](O)CC#N : -36.1

Provide reported growth inhibition for each item, in the same order as listed.
1. [O-]/[N+](=C\c1ccccc1)[C@H](COCc1ccccc1)c1ccccc1
2. COC(=O)Nc1cccc(NC(=O)C(=O)O)c1
3. COc1ccc(C(O)(CCN2CCOCC2)c2ccc3c(c2)OCO3)cc1 (stereo not drawn)
4. CC1CN(C(=O)Cn2cnc([N+](=O)[O-])n2)CC(C)O1 (stereo not drawn)
5. CN(c1ccccc1)C1C(=O)N(c2ccccc2)C1/C=C/c1ccccc1 (stereo not drawn)
6. COCn1cnc2c(=O)n(-c3ccc(OC)cc3)c(=S)n(-c3ccc(OC)cc3)c21
7. COc1ccc(Nc2nnc(-c3nsc4ccccc34)s2)cc1

-23.8
-0.95
-7.7
2.75
13.3
-28.9
-37.9

Could you tell me growth inhibition for each of these compounds? They are listed below.
1. CC12CCC(=O)C=C1CCC1C2CCC2(C)C1CCC2(O)C(=O)Cn1c(=O)[nH]cc(F)c1=O (stereo not drawn)
2. COC(=O)/C(=C\c1ccccc1[N+](=O)[O-])c1ccc2c(c1)OCO2
3. C[C@@H]1OC2(O)[C@H]3CCCN3S(=O)(=O)CCN2C1=O (stereo partly drawn)

1: 5.75; 2: 3.2; 3: -8.05

src = PubChem BioAssay (NCI)
